Value source: ChEMBL document CHEMBL2150889

Listing: IC50 of selected molecules
assayed_system: Metabotropic glutamate receptor 5 (Homo sapiens)
experiment_description: Negative allosteric modulation of human mGluR5 expressed in recombinant HEK293 cells by FLIPR assay
Just the number please, in nM, no unit attached.

Below, each entry is followed by its recorded IC50 result.
Cc1cccc(-c2noc(C3CN(C(=O)c4cccc(F)c4)C3)n2)c1 = 2100
O=S(=O)(c1ccc(Cl)cc1)N1CC(c2nc(-c3cccc(Cl)c3)no2)C1 = 170
O=C(c1ccc(F)cc1)N1CC(c2nc(-c3cccc(Cl)c3)no2)C1 = 4000
COC1CCCN(C(=O)N2CC(c3nc(-c4cccc(Cl)c4)no3)C2)C1 (configuration not stated) = 1830
Cc1cccc(-c2noc(C3CN(C(=O)C4CCC4)C3)n2)c1 = 1000

stdin: Request the reported IC50 associated with Cc1ccc(S(=O)(=O)N2CC(c3nc(-c4cccc(Cl)c4)no3)C2)cc1
stdout: 920

stdin: Recorded IC50 for CC1CCCN(C(=O)N2CC(c3nc(-c4cccc(Cl)c4)no3)C2)C1 (configuration not stated) , please?
stdout: 3400

stdin: I have this molecule here, Cc1cccc(-c2noc(C3CN(C(=O)C4CCOC4)C3)n2)c1 (configuration not stated) , and I need its recorded IC50.
stdout: 1300

stdin: What IC50 value was documented for this molecule, O=C(C1CCC1)N1CC(c2nc(-c3cccc(Cl)c3)no2)C1 ?
stdout: 1500

stdin: GET /values?readout=IC50&item= O=S(=O)(c1ccc(F)cc1)N1CC(c2nc(-c3cccc(Cl)c3)no2)C1
stdout: 130

----------
assayed_system: Metabotropic glutamate receptor 5 (Homo sapiens)
experiment_description: Positive allosteric modulation of human mGluR5 expressed in recombinant HEK293 cells by FLIPR assay
value_kind: pEC50
Field pEC50 (float): negative decimal logarithm of the concentration in molar.

Cc1ccc(C(=O)N2CC(c3nc(-c4cccc(F)c4)no3)C2)cc1 = 5.17
Cc1cccc(-c2noc(C3CN(C(=O)C4CCCC(C)C4)C3)n2)c1 (stereo unspecified) = 6.30
O=C([C@H]1CC2CCC1C2)N1CC(c2nc(-c3cccc(F)c3)no2)C1 (stereo partly specified) = 7.14

stdin: // query pEC50 value for entry O=C(C1CCC(C(F)(F)F)CC1)N1CC(c2nc(-c3cccc(Cl)c3)no2)C1 (stereo unspecified)
stdout: 6.00

stdin: Can you share its pEC50? I mean this compound: O=C([C@H]1CC2CCC1C2)N1CC(c2nc(-c3ccccc3)no2)C1 (stereo partly specified)
stdout: 6.92

stdin: Which pEC50 value belongs to Cc1cccc(-c2noc(C3CN(C(=O)c4ccc(F)cc4)C3)n2)c1 ?
stdout: 5.85

stdin: Item O=C(C1CCC(C(F)(F)F)CC1)N1CC(c2nc(-c3cccc(F)c3)no2)C1 (stereo unspecified) has what recorded pEC50?
stdout: 6.17

stdin: Entry O=C(C1CCC(F)(F)CC1)N1CC(c2nc(-c3cccc(F)c3)no2)C1 has what pEC50?
stdout: 6.28

stdin: Record request: pEC50 value, item Cc1cccc(-c2noc([C@@H]3CCN3C(=O)Cc3ccc(F)cc3)n2)c1
stdout: 5.72

stdin: Could you share which pEC50 value was measured for CC1CCCC(C(=O)N2CC(c3nc(-c4cccc(Cl)c4)no3)C2)C1 (stereo unspecified) ?
stdout: 6.39

stdin: Reported pEC50, compound Cc1cccc(-c2noc(C3CN(C(=O)c4ccc(Cl)cc4)C3)n2)c1 : ____
stdout: 5.15

----------
assayed_system: Metabotropic glutamate receptor 5 (Homo sapiens)
experiment_description: Negative allosteric modulation of human mGluR5 expressed in recombinant HEK293 cells by FLIPR assay
Type: cell-based
Set-up: concentration or dose not given beside the values
assay_conditions: concentration not given here
value_kind: inhibition (%)
Give a bare numeral; the unit % is implied.

Past entries and their recorded results:
Cc1cccc(-c2noc(C3CN(C(=O)C4CCOCC4)C3)n2)c1 = 74
Cc1cccc(-c2noc(C3CN(C(=O)C4CCCO4)C3)n2)c1 (stereo unspecified) = 79
CC1CCCN(C(=O)N2CC(c3nc(-c4cccc(Cl)c4)no3)C2)C1 (stereo unspecified) = 69
O=C(c1cccc(F)c1)N1CC(c2nc(-c3cccc(Cl)c3)no2)C1 = 87
Cc1cccc(S(=O)(=O)N2CC(c3nc(-c4cccc(Cl)c4)no3)C2)c1 = 82
Cc1cccc(-c2noc(C3CN(C(=O)C4CCC4)C3)n2)c1 = 77
Cc1cccc(-c2noc(C3CN(C(=O)C4CCOC4)C3)n2)c1 (stereo unspecified) = 80
Cc1cccc(-c2noc(C3CN(C(=O)c4ccc(F)cc4)C3)n2)c1 = 50
O=C(c1ccccc1F)N1CC[C@H]1c1nc(-c2cccc(F)c2)no1 = 68
O=S(=O)(c1ccc(Cl)cc1)N1CC(c2nc(-c3cccc(Cl)c3)no2)C1 = 79

# evaluate next
stdin: Lookup: inhibition / Metabotropic glutamate receptor 5 (Homo sapiens) / O=C(C1CCCO1)N1CC(c2nc(-c3cccc(Cl)c3)no2)C1 (stereo unspecified)
stdout: 79

----------
Let's look at some compounds and their measured Emax.
assayed_system: Metabotropic glutamate receptor 5 (Homo sapiens, UniProt P41594)
experiment_description: Positive allosteric modulation of human mGluR5 expressed in recombinant HEK293 cells by FLIPR assay
Format: cell-based
A number alone suffices; assume %.

Solved entries:
O=C(N1CCC(F)CC1)N1CC(c2nc(-c3cccc(Cl)c3)no2)C1 = 41
Cc1cccc(S(=O)(=O)N2CC(c3nc(-c4cccc(Cl)c4)no3)C2)c1 = -2
O=C(c1ccc(F)c(F)c1)N1CC(c2nc(-c3cccc(F)c3)no2)C1 = 35
Cc1cccc(-c2noc(C3CN(C(=O)c4cccc(F)c4)C3)n2)c1 = 15
CC1CCCN(C(=O)N2CC(c3nc(-c4cccc(Cl)c4)no3)C2)C1 (stereo not given) = 6

stdin: What Emax value was documented for this compound, Cc1ccc(C(=O)N2CC(c3nc(-c4cccc(F)c4)no3)C2)cc1 ?
stdout: 27

stdin: Recorded Emax for O=C(C1CCC(C(F)(F)F)CC1)N1CC(c2nc(-c3cccc(F)c3)no2)C1 (stereo not given) , please?
stdout: 56

stdin: Which Emax value is on record for COC1CCCN(C(=O)N2CC(c3nc(-c4cccc(Cl)c4)no3)C2)C1 (stereo not given) ?
stdout: -14

stdin: Would you mind telling me what Emax value was observed for Cc1cccc(-c2noc(C3CN(C(=O)C4CCCCC4)C3)n2)c1 ?
stdout: 45

stdin: Which Emax value belongs to CC1CCC(C(=O)N2CC(c3nc(-c4cccc(F)c4)no3)C2)CC1 (stereo not given) ?
stdout: 47

----------
Property: Activity; scope: individual compounds
assayed_system: Metabotropic glutamate receptor 5 (Homo sapiens)
experiment_description: Positive allosteric modulation of human mGluR5 expressed in recombinant HEK293 cells by FLIPR assay
Format: cell-based
Parameters: concentration or dose not given beside the values
The answer is to be given in %; state only the numeric part.

stdin: Which Activity value is on record for Cc1cccc(-c2noc(C3CN(C(=O)C4CCCCC4)C3)n2)c1 ?
stdout: 20

stdin: Quick check: Activity of Cc1cccc(-c2noc(C3CN(C(=O)C4CCC(F)(F)CC4)C3)n2)c1 ?
stdout: 3

stdin: State the recorded Activity for this entry: O=C(c1ccc(Cl)cc1)N1CC(c2nc(-c3cccc(F)c3)no2)C1
stdout: 82

stdin: I'd like to know its Activity. The compound in question is O=C(N1CCCCC1)N1CC(c2nc(-c3cccc(Cl)c3)no2)C1
stdout: 87

stdin: Give the measured Activity of O=C(c1ccc(F)c(F)c1)N1CC(c2nc(-c3cccc(F)c3)no2)C1 .
stdout: 50

stdin: For the compound shown here, CC1CCCC(C(=O)N2CC(c3nc(-c4cccc(Cl)c4)no3)C2)C1 (configuration not stated) , give the reported Activity.
stdout: 34

stdin: Given the compound O=C(N1CCCC(F)C1)N1CC(c2nc(-c3cccc(Cl)c3)no2)C1 (configuration not stated) , what is its reported Activity?
stdout: 81

stdin: // Activity lookup, key: O=C(N1CCC(F)CC1)N1CC(c2nc(-c3cccc(Cl)c3)no2)C1
stdout: 61

----------
Below, each entry is listed with its recorded inhibition.
assayed_system: Metabotropic glutamate receptor 5 (Homo sapiens, UniProt P41594)
experiment_description: Negative allosteric modulation of human mGluR5 expressed in recombinant HEK293 cells by FLIPR assay
Assay type: cell-based
Parameters: concentration or dose not given beside the values
assay_conditions: concentration not given here
Express the result in % but write the number alone.

Example compounds with recorded inhibition:
Cc1cccc(-c2noc(C3CN(S(=O)(=O)c4ccc(Cl)cc4)C3)n2)c1 = 75
Cc1cccc(-c2noc([C@@H]3CCN3C(=O)c3ccccc3F)n2)c1 = 58

stdin: Report inhibition for O=C(C1CCC(F)(F)CC1)N1CC(c2nc(-c3cccc(F)c3)no2)C1 please.
stdout: 11

stdin: Any idea what its inhibition is? The compound is COC1CCCN(C(=O)N2CC(c3nc(-c4cccc(Cl)c4)no3)C2)C1 (stereo not given)
stdout: 80

stdin: Please report the recorded inhibition for Cc1ccc(S(=O)(=O)N2CC(c3nc(-c4cccc(Cl)c4)no3)C2)cc1 .
stdout: 75
